Entry source: the supplement of paper PMC11061612

Test system: U-2-OS (Osteosarcoma)
Assay: combination Emax (second highest fraction inhibited in the dose matrix, 72 h); higher = more inhibition; extreme values may be limits of the assay
Kindly supply the reported combination Emax values for the records listed here.

In: Provide one value: measured combination Emax of C=CCn1c(=O)c2cnc(Nc3ccc(N4CCN(C)CC4)cc3)nc2n1-c1cccc(C(C)(C)O)n1 [AZD1775] + O=C(c1cc(Cc2n[nH]c(=O)c3ccccc23)ccc1F)N1CCN(C(=O)C2CC2)CC1 [Olaparib] (first compound max 1 µM, partner max 10 µM)
Out: 0.637

In: Supply measured combination Emax of COc1nnc2ccc(N3CCC(c4ccc(OCCN5CCN(C)C(=O)[C@H]5C)cc4)CC3)nn12 [AZD5153] + CC1(C)CCC(CN2CCN(c3ccc(C(=O)NS(=O)(=O)c4ccc(NCC5CCOCC5)c([N+](=O)[O-])c4)c(Oc4cnc5[nH]ccc5c4)c3)CC2)=C(c2ccc(Cl)cc2)C1 [Venetoclax] (first compound max 1 µM, 7x7, partner max 1 µM) in your reply.
Out: 0.321

In: Item CC(=O)Nc1cccc(-n2c(=O)n(C3CC3)c(=O)c3c(Nc4ccc(I)cc4F)n(C)c(=O)c(C)c32)c1 [Trametinib] + Cc1nc(-c2cn3c(n2)-c2ccc(-c4cnn(C(C)(C)C(N)=O)c4)cc2OCC3)n(C(C)C)n1 [Taselisib] (first compound max 1 µM, 7x7, partner max 10 µM) : provide combination Emax
Out: 1

In: Please report combination Emax for the following molecule: C=CCn1c(=O)c2cnc(Nc3ccc(N4CCN(C)CC4)cc3)nc2n1-c1cccc(C(C)(C)O)n1 [AZD1775] + C1CN(CCC1(C(=O)N[C@@H](CCO)C2=CC=C(C=C2)Cl)N)C3=NC=NC4=C3C=CN4 [Capivasertib] (first compound max 3 µM, partner max 3 µM)
Out: 0.665

In: Answer with reported combination Emax of CN(CCO)CC[C@H](CSc1ccccc1)Nc1ccc(S(=O)(=O)NC(=O)c2ccc(N3CCC([C@@H](O)c4ccccc4-c4ccc(Cl)cc4)CC3)cc2)cc1S(=O)(=O)C(F)(F)F [AZD4320] + C[C@@H](Nc1cc(F)cc(F)c1)c1cc(C(=O)N(C)C)cc2c(=O)cc(N3CCOCC3)oc12 [AZD8186] (first compound max 1 µM, 7x7, partner max 3 µM)
Out: 0.382

In: Quickly give me recorded combination Emax for C[C@@H]1COCCN1c1cc(C2([S@](C)(=N)=O)CC2)nc(-c2ccnc3[nH]ccc23)n1 [AZD6738] + C1CC(C1)(C(=O)[O-])C(=O)[O-].N.N.[Pt+2] [Carboplatin] (first compound max 10 µM, 7x7, partner max 10 µM)
Out: 0.511

In: Return combination Emax (reported value) for this molecule: COc1cccc(OCCCN)c1-c1cc(Nc2cnc(C#N)cn2)n[nH]1 [Prexasertib] + O=C(c1cc(Cc2n[nH]c(=O)c3ccccc23)ccc1F)N1CCN(C(=O)C2CC2)CC1 [Olaparib] (first compound max 1 µM, 7x7, partner max 10 µM)
Out: 0.908

---

Tested on: IGR-37 (Melanoma)
Assay: combination Emax (second highest fraction inhibited in the dose matrix, 72 h); higher = more inhibition; extreme values may be limits of the assay
Would you mind telling me the reported combination Emax of each entry?
Please give only the number in your answer, with no unit.

In: Tell me its combination Emax given CC1(C)CCC(CN2CCN(c3ccc(C(=O)NS(=O)(=O)c4ccc(NCC5CCOCC5)c([N+](=O)[O-])c4)c(Oc4cnc5[nH]ccc5c4)c3)CC2)=C(c2ccc(Cl)cc2)C1 [Venetoclax] + COc1cc(Nc2ncc3c(n2)-c2ccc(Cl)cc2C(c2c(F)cccc2OC)=NC3)ccc1C(=O)O [Alisertib] (first compound max 1 µM, 7x7, partner max 10 µM) as the entry.
Out: 0.486

In: Identify combination Emax associated with the molecule C[C@@H](Oc1cc(-c2cnn(C3CCNCC3)c2)cnc1N)c1c(Cl)ccc(F)c1Cl [Crizotinib] + Cn1cnc2c(F)c(Nc3ccc(Br)cc3Cl)c(C(=O)NOCCO)cc21 [Selumetinib] (first compound max 10 µM, 7x7, partner max 10 µM)
Out: 0.922

In: Check the records and state combination Emax for CC(=O)c1c(C)c2cnc(Nc3ccc(N4CCNCC4)cn3)nc2n(C2CCCC2)c1=O [Palbociclib] + Cc1c2c(nn1C)CSCc1cc(n(C)n1)CSc1cc(c3ccccc3c1)OCCCc1c(C(=O)O)n(C)c3c-2c(Cl)ccc13 [AZD5991] (first compound max 10 µM, 7x7, partner max 1 µM)
Out: 0.325

In: Please list combination Emax recorded for the molecule CC(=O)c1c(C)c2cnc(Nc3ccc(N4CCNCC4)cn3)nc2n(C2CCCC2)c1=O [Palbociclib] + CC1(C)CCC(CN2CCN(c3ccc(C(=O)NS(=O)(=O)c4ccc(NCC5CCOCC5)c([N+](=O)[O-])c4)c(Oc4cnc5[nH]ccc5c4)c3)CC2)=C(c2ccc(Cl)cc2)C1 [Venetoclax] (first compound max 10 µM, 7x7, partner max 1 µM)
Out: 0.215
